The entries below come with measured inhibition at 1 µM values attached.
target: serotoninergic 5-HT1A receptor (Homo sapiens, UniProt P08908); assay: Binding assay 5-HT1A (h), [3H]8-OH-DPAT, HEK-293 cells; parameters: expressed in transfected cells; host or cells: HEK-293 cells; settings: read-out: 5-HT1A
Sequence (P08908 whole entry): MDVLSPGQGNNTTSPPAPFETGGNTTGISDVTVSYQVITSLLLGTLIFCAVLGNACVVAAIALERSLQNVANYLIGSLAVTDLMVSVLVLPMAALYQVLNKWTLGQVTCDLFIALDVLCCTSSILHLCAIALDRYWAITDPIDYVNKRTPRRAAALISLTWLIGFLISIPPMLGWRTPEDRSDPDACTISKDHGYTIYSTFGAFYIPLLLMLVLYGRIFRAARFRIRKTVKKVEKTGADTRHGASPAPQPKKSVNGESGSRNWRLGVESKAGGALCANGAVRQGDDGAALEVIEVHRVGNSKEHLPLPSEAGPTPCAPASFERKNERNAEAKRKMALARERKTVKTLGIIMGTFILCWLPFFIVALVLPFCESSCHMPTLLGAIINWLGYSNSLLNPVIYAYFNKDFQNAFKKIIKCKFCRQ
// note: answer is a bare numeric in %

O=S(=O)(NCCCCN1CCN(c2cccc3c2OCCO3)CC1)c1csc2ccccc12 :: 100

Quick one: inhibition at 1 µM for O=S(=O)(NCCCCN1CCN(c2cccc3[nH]ccc23)CC1)c1ccccc1 ? 99

Quick one: inhibition at 1 µM for O=S(=O)(NCCCCN1CCC(c2noc3cc(F)ccc23)CC1)c1ccc2cn[nH]c2c1 ? 55

Quick one: inhibition at 1 µM for Cc1c(S(=O)(=O)NCCCCN2CCC(c3noc4cc(F)ccc34)CC2)sc2ccc(Cl)cc12 ? 70

Quick one: inhibition at 1 µM for Cc1c(S(=O)(=O)NCCCN2CCC(c3noc4cc(F)ccc34)CC2)sc2ccc(F)cc12 ? 92

Quick one: inhibition at 1 µM for CC(C)(C)c1ccc(S(=O)(=O)NCCCCN2CCN(c3nsc4ccccc34)CC2)cc1 ? 53

Quick one: inhibition at 1 µM for O=S(=O)(NCCCCN1CCC(c2noc3cc(F)ccc23)CC1)c1cc2ccc(Cl)cc2s1 ? 75

Quick one: inhibition at 1 µM for Cc1cccc(S(=O)(=O)NCCCN2CCN(c3nsc4ccccc34)CC2)c1 ? 99

----------
Target: dopaminergic D2 receptor (Homo sapiens, UniProt P14416)
Sequence (P14416 1-414 isoform P14416-2): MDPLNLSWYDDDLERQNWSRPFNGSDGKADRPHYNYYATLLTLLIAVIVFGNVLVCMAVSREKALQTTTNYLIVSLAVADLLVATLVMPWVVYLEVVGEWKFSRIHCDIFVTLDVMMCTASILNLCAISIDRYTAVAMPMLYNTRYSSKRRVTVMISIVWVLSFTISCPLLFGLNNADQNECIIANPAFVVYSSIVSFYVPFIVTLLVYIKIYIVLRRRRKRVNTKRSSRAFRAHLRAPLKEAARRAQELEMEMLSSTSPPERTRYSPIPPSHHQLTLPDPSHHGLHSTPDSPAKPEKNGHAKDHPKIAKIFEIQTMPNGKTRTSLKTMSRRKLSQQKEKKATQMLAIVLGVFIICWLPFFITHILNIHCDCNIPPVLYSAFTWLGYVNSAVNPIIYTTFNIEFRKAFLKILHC
Test: Binding assay D2S (h), [3H]methyl-spiperone, HEK-293 cells
Set-up: expressed in transfected cells; host or cells: HEK-293 cells
Settings: read-out: D2 [%]
Protocol: The specific ligand binding to the receptors is defined as the difference between the total binding and the nonspecific binding determined in the presence of an excess of so unlabelled ligand. The specific Ligand binding to the receptor is defined as the difference between total and non-specific binding determined in the presence of an excess of unlabelled ligand. The compounds were tested at a concentration of 1×10^−6 M, and scintillation counting was the method of detection of ligand binding.
The entries below come with measured inhibition at 1 µM values attached.
// note: answer is a bare numeric in %

O=S(=O)(NCCCCN1CCC(c2noc3cc(F)ccc23)CC1)c1cccs1 :: 96
O=S(=O)(NCCCCN1CCN(c2nsc3ccccc23)CC1)c1ccc(F)c(F)c1 :: 87
O=S(=O)(NCCCN1CCN(c2nsc3ccccc23)CC1)c1ccc(Cl)s1 :: 98
O=c1[nH]c2ccc(S(=O)(=O)NCCCN3CCC(c4noc5cc(F)ccc45)CC3)cc2o1 :: 91
O=S(=O)(NCCCN1CCN(c2nsc3ccccc23)CC1)c1ccc2c(c1)OCO2 :: 99
O=S(=O)(NCCCCN1CCN(c2nsc3ccccc23)CC1)c1cccc(C(F)(F)F)c1 :: 103
O=S(=O)(NCCCCN1CCN(c2nsc3ccccc23)CC1)c1ccc(Cl)c(Cl)c1 :: 103

Here is another molecule to look at.
Lookup: inhibition at 1 µM / dopaminergic D2 receptor (Homo sapiens, UniProt P14416) / O=S(=O)(NCCCCN1CCC(c2noc3cc(F)ccc23)CC1)c1ccc(Cl)cc1 105

----------
test system: adrenergic α1 receptor; experiment: Binding assay α1 (non-selective), [3H]prazosin, rat cerebral cortex; details: percent inhibition of control specific binding; compounds tested at 1×10^−6 M
measuredAttribute: α1 [%] (%)
// note: answer is a bare numeric in %

Use these answered entries as a reference point.
O=S(=O)(NCCCCN1CCN(c2noc3ccccc23)CC1)c1cc2ccc(Cl)cc2s1 [Compound 288] :: 94
O=S(=O)(NCCCN1CCC(c2noc3cc(F)ccc23)CC1)c1cc2ccccc2s1 [Compound 345] :: 102
O=S(=O)(NCCCCN1CCN(c2cccc3c2OCCO3)CC1)c1cccc(O)c1 [Compound 393] :: 91
O=S(=O)(NCCCCN1CCC(c2noc3cc(F)ccc23)CC1)c1ccc2c(c1)OCO2 [Compound 320] :: 98
O=S(=O)(NCCCCN1CCN(c2nsc3ccccc23)CC1)c1cccc(Br)c1 [Compound 230] :: 98

Lookup: α1 [%] / adrenergic α1 receptor / Cc1cc(S(=O)(=O)NCCCCN2CCC(c3noc4cc(F)ccc34)CC2)c(C)s1 [Compound 309] 103

Lookup: α1 [%] / adrenergic α1 receptor / O=S(=O)(NCCCCN1CCC(c2noc3cc(F)ccc23)CC1)c1ccc(F)c(F)c1 [Compound 295] 96

Lookup: α1 [%] / adrenergic α1 receptor / CC(C)(C)c1ccc(S(=O)(=O)NCCCCN2CCN(c3nsc4ccccc34)CC2)cc1 [Compound 233] 94

Lookup: α1 [%] / adrenergic α1 receptor / O=S(=O)(NCCN1CC=C(c2c[nH]c3ccc(F)cc23)CC1)c1cccc(F)c1 [Compound 439] 27

Lookup: α1 [%] / adrenergic α1 receptor / O=S(=O)(NCCCN1CCC(c2noc3cc(F)ccc23)CC1)c1ccc(F)c(F)c1 [Compound 327] 109
